- Assayed system: Voltage-dependent T-type calcium channel subunit alpha-1H (Homo sapiens)
- Test description: Cav3.2 calcium influx blockers – cell-based, Fluo-4 calcium fluorescence, FDSS, MLSMR library, primary screen (AID 449739)
- Assay setup: Cav3.2-expressing cells, at 10 µM, hits give low values
In all, about 100,000 compounds went through this assay and about 4,200 (4.2%) were called active. Shown is part of a subset that was picked to be rich in actives.
Reported metric: B-score

Identify measured B-score associated with CCOC(=O)c1cccc(NC(=O)c2ccc(F)cc2F)c1
0.631 (inactive)

Identify measured B-score associated with O=c1c2ccccc2c(-c2ccc(Br)cc2)nn1Cc1ccccc1
0.372 (inactive)

Identify measured B-score associated with O=C(CSc1nnc(-c2cccs2)n1-c1ccccc1)NCc1ccco1
0.148 (inactive)

Identify measured B-score associated with NC(=O)C1=C[C@H](c2csc3ccccc23)C[C@H](OCc2ccc(CO)cc2)O1
0.00737 (inactive)

Identify measured B-score associated with O=C(COC(=O)c1ccc2c(c1)OCCO2)NCc1ccccc1
-0.412 (inactive)

Identify measured B-score associated with Cc1cc(C(=O)OCC(=O)NCc2ccco2)c(C)n1-c1ccccc1
-4.45 (active)

----------
- Assayed system: Voltage-dependent T-type calcium channel subunit alpha-1H (Homo sapiens)
- Test description: Cav3.2 calcium influx blockers – cell-based, Fluo-4 calcium fluorescence, FDSS, MLSMR library, primary screen (AID 449739)
- Assay setup: Cav3.2-expressing cells, at 10 µM, hits give low values
In all, about 100,000 compounds went through this assay and about 4,200 (4.2%) were called active. The list comes from a sample in which actives are over-represented; it also holds close analogues and randomly drawn compounds.
Hi there, I'd appreciate the recorded B-score for every entry that follows.
No unit in the answer, only the number.

Identify measured B-score associated with CC(C)c1ccc(N2CCN(C(=O)c3ccccc3NC(=O)/C=C(\C(=O)O)c3ccccc3)CC2)cc1
-0.303

Identify measured B-score associated with Cc1nnsc1S(=O)(=O)Cc1ccccc1Cl
0.123

Identify measured B-score associated with CNC(=S)N1N=C(c2ccccc2)CC1c1ccc(Br)cc1 (stereo unspecified)
-7.33

Identify measured B-score associated with COCc1cc(C)nc2sc(C(=O)NC3CCCCC3)c(N)c12
-0.0172

Identify measured B-score associated with CC(=O)c1ccc(Cc2ncc(C(F)(F)F)cc2Cl)s1
-0.288

Identify measured B-score associated with c1cnc(Nc2nc(-c3ccc4ccccc4c3)cs2)nc1
0.515

Identify measured B-score associated with CC(C)C(=O)OCC(=O)Nc1ccc2c(c1)CCC2
0.246

Identify measured B-score associated with COc1ccc(CC(=O)Nc2sc(Cc3ccccc3)c(C)c2C(N)=O)cc1
-0.493

Identify measured B-score associated with COc1ccc(OCC(=O)NN2Cc3ccccc3C2=N)cc1
0.0596

Identify measured B-score associated with Cc1n[nH]c(=S)n1/N=C/c1ccc(Br)o1
0.825

Identify measured B-score associated with O=C(CN1CCN(S(=O)(=O)c2ccc3ccccc3c2)CC1)NC(=O)NC1CCCCC1
-8.92

----------
- Assayed system: Voltage-dependent T-type calcium channel subunit alpha-1H (Homo sapiens)
- Test description: Cav3.2 calcium influx blockers – cell-based, Fluo-4 calcium fluorescence, FDSS, MLSMR library, primary screen (AID 449739)
- Assay setup: Cav3.2-expressing cells, at 10 µM, hits give low values
Hit rate of the full screen: of about 100,000 compounds, about 4,200 (4.2%) were called active. The entries come from a sample that favours actives as a whole.
Reported metric: B-score
No unit in the answer, only the number.

Identify measured B-score associated with CC(=O)NC(Cc1c[nH]c2ccccc12)C(=O)O (stereo not given)
1.52

Identify measured B-score associated with CCOc1[nH]n(-c2ccc(Cl)cc2)c(=O)c1C=Nc1ccc(O)cc1
-0.0117

Identify measured B-score associated with C=CCCN(Cc1ccccc1)S(=O)(=O)c1ccccc1Br
0.0805

Identify measured B-score associated with C#Cc1ccc([C@@H]2C=C(C(=O)O)O[C@H](OCCCCO)C2)cc1
-1.58

Identify measured B-score associated with NC(=O)CSc1c[nH]c2ccccc12
0.666
